# procedureSummary: Cytotoxicity against human KB cells assessed growth inhibition at 10 uM after 72 hrs by MTS assay
# Assay type: cell-based
# experimentalSetup: read-out: GI
measureName: inhibition at 72 h, 10 µM (%)

* CSc1ccc(B(O)O)cn1 | 0
* OB(O)c1cnc2ccccc2c1 | 0
* OB(O)c1ccc(OCc2ccccc2)cc1 | 6
* OB(O)c1cccnc1F | 4
* OB(O)c1ccc(Oc2ccc(Cl)nc2)nc1 | 0
* OB(O)c1ccc(OCc2ccccc2)nc1 | 2
* Cc1cc(B(O)O)cnc1Cl | 0
* O=Cc1ccc(B(O)O)cc1C(F)(F)F | 100

---

# systemName: Quinolone resistance protein NorA (Staphylococcus aureus)
# procedureSummary: Inhibition of NorA in fluoroquinolone-resistant Staphylococcus aureus 1199B assessed as potentiation of 4 ug/ml of ciprofloxacin MIC at 100 ug/ml after 24 hrs by microdilution method
measureName: Activity

• N#Cc1cnccc1B(O)O = > 128 µg/mL
• OB(O)c1cccnc1Br = > 128 µg/mL
• CC(C)(O)C(C)(C)OB(OC(C)(C)C(C)(C)O)c1cncc(Br)c1 = > 128 µg/mL

---

# systemName: Quinolone resistance protein NorA (Staphylococcus aureus) (UniProt P0A0J7)
# procedureSummary: Inhibition of NorA in fluoroquinolone-resistant Staphylococcus aureus 1199B assessed as potentiation of 4 ug/ml of ciprofloxacin MIC at 100 ug/ml after 24 hrs by microdilution method
measureName: Activity (µg/mL)

* OB(O)c1cc(Cl)cnc1Cl | 16
* CC(C)(O)C(C)(C)OB(OC(C)(C)C(C)(C)O)c1cc(Br)cnc1Cl | 128

---

# procedureSummary: Cytotoxicity against human KB cells assessed growth inhibition at 10 uM after 72 hrs by MTS assay
# Assay type: cell-based
# experimentalSetup: read-out: GI
Parameter: inhibition at 72 h, 10 µM. Scope: all listed entries.
measureName: inhibition at 72 h, 10 µM (%)

* OB(O)c1ccc(Br)nc1 | 1
* CC(=O)n1ncc2c(B3OC(C)(C)C(C)(C)O3)cccc21 | 0
* CC(C)(O)C(C)(C)OB(OC(C)(C)C(C)(C)O)c1ccnc(F)c1 | 0
* COc1ccc(B(O)O)cn1 | 0
* OB(O)c1ccccc1Oc1ccccc1 | 10
* OB(O)c1ccsc1 | 0
* CC(C)(O)C(C)(C)OB(OC(C)(C)C(C)(C)O)c1ccc(Br)nc1 | 0
* Cn1nccc1B1OC(C)(C)C(C)(C)O1 | 0
* Cc1cc(B(O)O)ccc1Cl | 0
* OB(O)c1ccc(Cl)nc1 | 1
* OB(O)c1ccc2ccccc2c1 | 3
* OB(O)c1ccc(Br)cc1 | 0
* Cc1c(B(O)O)ccc2ccccc12 | 0
* OB(O)c1ccc(Oc2cncc(Cl)c2)nc1 | 0

---

# systemName: Quinolone resistance protein NorA (Staphylococcus aureus)
# procedureSummary: Inhibition of NorA in fluoroquinolone-resistant Staphylococcus aureus 1199B assessed as potentiation of 4 ug/ml of ciprofloxacin MIC at 100 ug/ml after 24 hrs by microdilution method
Parameter: Activity. Scope: all listed entries.
measureName: Activity (µg/mL)

- CC(C)(O)C(C)(C)OB(OC(C)(C)C(C)(C)O)c1ccnc(F)c1Cl: 16
- COc1ccc(B(O)O)cc1: 64
- Oc1ccc2ccccc2c1: 64
- OB(O)c1cncc(Oc2cncc(Cl)c2)c1: 16
- CC(C)(O)C(C)(C)OB(OC(C)(C)C(C)(C)O)c1ccnc(F)c1: 2
- CC(=O)OCc1ccc(B(OC(C)(C)C(C)(C)O)OC(C)(C)C(C)(C)O)cc1: 4
- CC(C)(O)C(C)(C)OB(OC(C)(C)C(C)(C)O)c1ccc(F)nc1: 128
- CSc1ccc(B(O)O)cn1: 8
- OB(O)c1cccnc1OCc1ccccc1: 32

---

# systemName: Quinolone resistance protein NorA (Staphylococcus aureus) (UniProt P0A0J7)
# Sequence (whole entry): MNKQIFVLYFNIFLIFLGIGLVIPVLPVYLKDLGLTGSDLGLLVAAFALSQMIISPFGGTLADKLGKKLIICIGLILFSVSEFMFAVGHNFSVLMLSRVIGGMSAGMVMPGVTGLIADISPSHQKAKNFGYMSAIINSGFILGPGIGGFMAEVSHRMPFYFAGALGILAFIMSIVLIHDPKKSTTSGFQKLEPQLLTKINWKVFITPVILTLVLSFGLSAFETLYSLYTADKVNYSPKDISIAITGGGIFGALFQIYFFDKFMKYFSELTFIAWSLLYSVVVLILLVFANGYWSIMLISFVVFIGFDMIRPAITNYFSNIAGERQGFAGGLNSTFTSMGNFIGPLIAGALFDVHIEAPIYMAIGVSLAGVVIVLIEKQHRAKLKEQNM
# procedureSummary: Inhibition of NorA in fluoroquinolone-resistant Staphylococcus aureus 1199B assessed as potentiation of 4 ug/ml of ciprofloxacin MIC at 100 ug/ml after 24 hrs by microdilution method
Parameter: Activity. Scope: all listed entries.
measureName: Activity (µg/mL)

- OB(O)c1ccccc1Oc1ccccc1: 32
- OB(O)c1ccc2[nH]ncc2c1: 32
- CCc1ccc(B(OC(C)(C)C(C)(C)O)OC(C)(C)C(C)(C)O)cc1: 32
- OB(O)c1ccc(OCc2ccccc2)nc1: 1
- Cc1cc(B(O)O)cnc1N1CCOCC1: 64
- Cc1cc(B(O)O)c(C)s1: 16
- CC1(C)OB(c2cnc(-c3ccccc3)n2C(=O)c2ccccc2)OC1(C)C: 32
- COc1nccc(B(O)O)c1Cl: 32
- Cc1cc(B(OC(C)(C)C(C)(C)O)OC(C)(C)C(C)(C)O)cnc1N1CCOCC1: 32
- O=Cc1ccc(OCc2ccccc2)nc1: 32
- COc1ncccc1B(O)O: 16
- Oc1ccccc1Br: 128
- O[B-](O)(O)c1cccnc1.[Na+]: 128
- OB(O)c1ccc2ccccc2c1: 4
- Oc1ccccc1Cl: 128
- OB(O)c1cnc2ccccc2c1: 4
